These entries and their values trace back to ChEMBL document CHEMBL1201862.

Tested on: NCI-H23
Assay: NCI tumour cell line growth inhibition, 48 h
The source made the active and inactive calls. Cut-off read from the data, not from the text of the source: active = GI50 up to about 1.1 µM and inactive = higher.
Outcome codes: active, inactive

compound="COc1ccc(-n2c(C)nc3ccc(NC4OC(COC(C)=O)C(OC(C)=O)C(OC(C)=O)C4OC(C)=O)cc3c2=O)cc1 (stereo not drawn)" discrete_label=inactive
compound=COc1ccc(P2(=S)OC(C)(C)C(C)(C)O2)cc1 discrete_label=inactive
compound=CS(=O)(=O)Nc1ccc2ccccc2c1-c1c(NS(C)(=O)=O)ccc2ccccc12 discrete_label=inactive
compound=CC(C)(C)c1cc(/C=C2/NC(=O)NC2=O)cc(C(C)(C)C)c1O discrete_label=inactive
compound=COc1cc(OC)c2c(C)cc(=O)oc2c1 discrete_label=inactive
compound=CC(C)(C)C(=O)N(C(=S)OCc1ccccn1)c1ccccc1 discrete_label=inactive
compound=Fc1ccccc1CN1COc2c(cc(Cl)c3cccnc23)C1 discrete_label=inactive
compound="O=C1CC(=O)NC(NN2C(=O)CSC2c2ccccc2)=N1 (stereo not drawn)" discrete_label=inactive
compound="Clc1cc(Cl)cc(C2SCc3nc4ccccc4n32)c1 (stereo not drawn)" discrete_label=inactive
compound=N#CCCN(CCCCN(CCC#N)C(=O)Nc1ccccc1)C(=O)Nc1ccccc1 discrete_label=inactive
compound=C/C(=N/OC(=O)c1cccc2c(=O)c3ccccc3[nH]c12)[C@H]1CC[C@H]2[C@@H]3CCC4=C/C(=N/OC(=O)c5cccc6c(=O)c7ccccc7[nH]c56)CC[C@]4(C)[C@H]3CC[C@]12C discrete_label=inactive
compound=COc1ccc2c(c1)-c1oc3ccccc3c(=O)c1CO2 discrete_label=inactive
compound=OC(c1ccc2c(c1)OCO2)c1ccc2c(c1)OCO2 discrete_label=inactive
compound=O=C1c2ccccc2C(=O)c2c(NC3CCCCC3)ccc(Nc3ccc(S(=O)(=O)O)cc3)c21 discrete_label=inactive
compound=CCCOc1ccc(/C=C/c2cc(OC)c(OC)c(OC)c2)cc1 discrete_label=active
compound=O=C(c1ccco1)N(C(=S)N1CCN(c2ccccc2)CC1)c1ccccc1 discrete_label=inactive
compound=COC1(OC)CC(CO)(COc2cc(Cl)nc(N)n2)C1 discrete_label=inactive
compound=C=COC(=O)N[C@H]1CCc2cc(OC)c(OC)c(OC)c2-c2ccc(SC)c(=O)cc21 discrete_label=active

====

System: RXF 393
Test: NCI tumour cell line growth inhibition, 48 h
Activity calls are given as the source filed them. Cut-off read from the data, not from the text of the source: active = GI50 up to about 1.1 µM and inactive = higher.
Labels: class 1 = active, class 0 = inactive

compound=CCCOc1ccc(/C=C/c2cc(OC)c(OC)c(OC)c2)cc1 discrete_label="class 1"
compound="COc1cc(C2c3cc4c(cc3OC(NC3CCCCC3)C2C)OCO4)cc(OC)c1OC (centres undefined)" discrete_label="class 1"
compound=Cc1c[nH]c(C(=O)O)c1-c1cccn1-c1ccc(Cl)cc1[N+](=O)[O-] discrete_label="class 0"
compound=CCCCCCCCCc1c(O)c(O)c(CCCCCCCCC)c(CCCCCCCCC)c1CCCCCCCCC discrete_label="class 0"
compound=CC1=NC(=O)CNN1C1=NNC2(C(=O)N1)c1ccccc1-c1ccccc12 discrete_label="class 0"
compound=CC(C)(C)c1cc(C(=O)Nc2cc(Br)c(Br)cc2S(N)(=O)=O)cc(C(C)(C)C)c1O discrete_label="class 0"
compound=CC/N=C(\N)CSS(=O)(=O)O discrete_label="class 0"
compound=C=CC1(c2ccc3ccccc3c2)OCC(CC)(CC)CO1 discrete_label="class 0"
compound=Cn1nc(-c2ccccc2)c(C(=O)/C=C/c2ccccc2)c(N2CCCC2)c1=O discrete_label="class 0"
compound=O=C1Nc2c(Cl)cc(Cl)cc2/C1=N/NC(=O)c1ccccc1O discrete_label="class 0"
compound="COC(=O)C1=Cc2cc(OC)c(OC)cc2[C@H](c2ccc(OC)c(OC)c2)C1C(=O)OC (some centres undefined)" discrete_label="class 0"
compound="CCCCCCCCCCC(C)CCCCCCC(=O)OCC(COP(=O)([O-])OCC[N+](C)(C)C)OC(=O)CCCCCCC(C)CCCCCCCCCC (centres undefined)" discrete_label="class 0"
compound="CNC(C)Cc1ccccc1O (centres undefined)" discrete_label="class 0"
compound="CC1CC2(OC2C)C(=O)OC2CCN(C)C/C=C(/COC(=O)C1(C)O)C2=O (centres undefined)" discrete_label="class 0"
compound="CN(C)CC1CCC/C(=C\\c2ccccc2)C1=O (centres undefined)" discrete_label="class 0"
compound=CCC(CC)n1c(C)nc2c1C(=O)c1ccccc1C2=O discrete_label="class 0"
compound=Nc1nc(-c2ccc3ccccc3c2)cc(-c2cc(-c3ccc4ccccc4c3)nc(N)n2)n1 discrete_label="class 0"
compound="COC(=O)C1=NC(=S)NC(c2ccccc2)C1c1nc2ccccc2o1 (centres undefined)" discrete_label="class 0"
compound=O=C(NCCCNCCCCNCCCNC(=O)C(F)(F)F)C(F)(F)F discrete_label="class 0"
compound="OC1C2CCC3C2CC(C(O)(c2ccccc2)c2ccccc2)C13 (centres undefined)" discrete_label="class 0"
compound=O=C1CCC(=O)c2c1c(O)c1ccncc1c2O discrete_label="class 0"
compound=Cc1cc(N(CCC#N)CCC#N)ccc1/C=C1\N=C(c2cc([N+](=O)[O-])ccc2Cl)N(NC(=O)c2ccc(/N=C\c3ccc(N(CCC#N)S(C)(=O)=O)cc3C)cc2)C1=O discrete_label="class 0"
compound=COC(=O)C(C)(C)[C@@H]1OC(=O)N(S(=O)(=O)c2c(C)cc(C)cc2C)[C@H]1C(C)C discrete_label="class 0"
compound=CC(=N/NC(=S)N1CCCCC1)/C(=N\NC(=S)N1CCCCC1)c1ccccc1 discrete_label="class 0"
compound=Oc1cccc(-c2nc3ccccc3s2)c1 discrete_label="class 0"
compound=COc1ccc2c(c1)[n+]([O-])c(C(C)=O)c(C)[n+]2[O-] discrete_label="class 0"
compound=COc1ccc(/C=C/c2cnc3ccccc3n2)cc1OC discrete_label="class 0"
compound=COc1cc2c(cc1OCc1ccccc1)NC(=O)[C@@H]1CCCN1C2=O discrete_label="class 0"
compound=CN(N=O)N1C(=O)SCC(c2ccccc2)(c2ccccc2)C1=O discrete_label="class 0"
compound=Cc1cc2ccccc2c[n+]1CC(O)C[n+]1cc2ccccc2cc1C discrete_label="class 0"
compound="O=c1cc(O)c2ccccc2o1 [4-HYDROXYCOUMARINS]" discrete_label="class 0"
compound=c1ccc2c(c1)nnn2CNc1ccc(N2CCCCC2)cc1 discrete_label="class 0"
compound=COc1ccc(/C=C2\Sc3nnc(-c4ccccc4)n3N=C2c2cc(F)c(Cl)cc2Cl)cc1OC discrete_label="class 0"
compound="NC(=O)N/N=C(\\CC1OC(=O)c2ccccc21)c1ccco1 (centres undefined)" discrete_label="class 0"

====

Test system: MCF7
Test: NCI tumour cell line growth inhibition, 48 h
The source made the active and inactive calls. No stated cut-off is given here; in the data, active = GI50 up to about 1.1 µM and inactive = higher.
readout_name: GI50

compound=CS/C(=N\C#N)S/C=C/C(=O)c1ccc(Cl)cc1 result="26.4 µM (inactive)"
compound=N#C/C(N)=C(C#N)/N=C/Nc1ccc(N)cc1 result="96.6 µM (inactive)"
compound=CC1=C(C)SC(=C2Sc3[n-]c(=O)[nH]c(=O)c3S2)S1.CCCC[N+](CCCC)(CCCC)CCCC result="42.5 µM (inactive)"
compound=CCCNc1ncnc2[nH]ncc12 result="91.4 µM (inactive)"
compound=Nc1nc(SCc2ccccc2[N+](=O)[O-])c2[nH]cnc2n1 result="51.5 µM (inactive)"
compound="CCN1CC2=C(OC(N)=C(C#N)C2c2ccc(Cl)cc2)/C(=C/c2ccc(Cl)cc2)C1 (stereo not drawn)" result="30.5 µM (inactive)"
compound="O=C(c1nc2ccc([N+](=O)[O-])cc2nc1O)C(O)c1ccc2c(c1)OCO2 (stereo not drawn)" result="96.8 µM (inactive)"
compound=O=C(NCCCNCCCCNCCCNC(=O)C(F)(F)F)C(F)(F)F result="> 100 µM (inactive)"
compound=COc1cccc(/C=N/C(/N=C/c2cccc(OC)c2O)c2cccc(OC)c2O)c1O result="18.9 µM (inactive)"
compound=CC1(C)[C@H](C(=O)O)N2C(=O)[C@@H](NS(=O)(=O)c3ccc([N+](=O)[O-])cc3)[C@H]2S1(=O)=O result="> 100 µM (inactive)"
compound=CN(C(=O)Cc1ccccc1)n1cn[n+](CC(=O)OC(C)(C)C)c1 result="> 10 µM (inactive)"
compound="CSC1(C)C(=O)Nc2c(OCc3ccccc3)cc([N+](=O)[O-])cc21 (stereo not drawn)" result="14 µM (inactive)"
compound=CC(C)(C)OC(=O)NCCNC(=O)OCc1ccccc1 result="> 100 µM (inactive)"

====

Parameter GI50: see the listing below.
System: NCI-H460
Test: NCI tumour cell line growth inhibition, 48 h
The source made the active and inactive calls. Rule as the data show it: active = GI50 up to about 1.1 µM and inactive = higher.
readout_name: GI50

compound="CCCCCCC1NN(C(C)=O)C(CCCCCC)NN1C(C)=O (centres undefined)" target_or_system=NCI-H460 readout_name=GI50 result="17.7 µM (inactive)"
compound="O=C(O)C12C3CCC(C3)C1(C(=O)O)C1CCC2C1 (centres undefined)" target_or_system=NCI-H460 readout_name=GI50 result="81.3 µM (inactive)"
compound=CCCCCCCCCCCCNC(=S)OC target_or_system=NCI-H460 readout_name=GI50 result="17.3 µM (inactive)"
compound="CC(=O)OCC1OC(n2c(=O)[nH]c(=O)c3nn[nH]c32)C(OC(C)=O)C(OC(C)=O)C1OC(C)=O (centres undefined)" target_or_system=NCI-H460 readout_name=GI50 result="> 100 µM (inactive)"
